system: SF-539 CNS; assay: NCI-60 one-dose screen, 48 h; conditions: 10 µM unless noted
The panel holds about 83,000 compounds, 20% with a hit somewhere; the sample as a whole holds those more often. Activity calls are given as the source filed them. How the source made its calls: active means growth percent below 10; inactive means the rest.
Outcomes: active, inactive

1. COc1ccc2cc(-c3nc(C)c(C(C)=O)c(-c4ccc(C)cc4)n3)ccc2c1    inactive
2. CS(=O)(=O)Nc1cc(-c2cc3ncc(C#N)c(Nc4ccc(Oc5ccccc5)c(Cl)c4)c3s2)cnc1Cl    inactive
3. O=C(CS)OCC(COC(=O)CS)(COC(=O)CS)COC(=O)CS    inactive
4. CC1=C(C(=O)Nc2ccc(F)cc2)C(c2ccc(C)cc2)C2=C(CC(C)(C)CC2=O)N1 (stereo not given)    inactive
5. CO[C@@]12[C@@H]3NC3CN1C1=C(C(=O)C(N)=C(C)C1=O)[C@@H]2COC(N)=O (stereo not given in full)    inactive
6. CCOC(=O)c1ccccc1SC(C[N+](=O)[O-])c1ccccc1 (stereo not given)    inactive
7. Fc1ccc(-c2nnc(N3CCOCC3)c3ccccc23)cc1    inactive
8. NS(=O)(=O)c1ccc(N2N=C(c3cccs3)CC2c2ccccc2O)cc1 (stereo not given)    active
9. Cc1n(Cc2ccc3ccccc3n2)cc[n+]1Cc1ccc2ccccc2n1    inactive
10. O=C(O)/C=C(\c1nc2ccc([N+](=O)[O-])cc2[nH]1)c1cc(Cl)ccc1O    inactive
